These measurements were taken from PubChem BioAssay.

Experiment: differential killing of epithelial or mesenchymal cells, primary screen, imaging, PC-3E GFP, TEM4-18 mCherry, co-culture (AID 1345086);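 note: normalised mesenchymal count divided by normalised epithelial count so high means epithelial killing; cells exposed to compound for 72 h before imaging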
Details: imaging cell counts, at 1 µM, actives lie on both sides, counts scaled to control wells, 1 = unselective
Each entry below lists one item and its recorded red/green cell ratio (normalised) value.
assay-endpoint: red/green cell ratio (normalised)

compound	assay-endpoint	value-observed
CCCCCC(=O)O[C@]1(C(C)=O)CCC2C3CCC4=CC(=O)CC[C@]4(C)C3CC[C@@]21C (stereo partly specified)	red/green cell ratio (normalised)	1.01
O=C(O)[C@H]1/C(=C/CO)O[C@@H]2CC(=O)N21	red/green cell ratio (normalised)	1.31
CC1CCC2OC2C/C=C/C(=O)c2c(O)cc(O)cc2CC(=O)O1 (stereo unspecified)	red/green cell ratio (normalised)	0.83
C[C@H](N[C@@H](CCc1ccccc1)C(=O)O)C(=O)N1CCC[C@H]1C(=O)O	red/green cell ratio (normalised)	0.88
COc1ccc(/C=C/C(=O)c2ccc(O)cc2O)cc1	red/green cell ratio (normalised)	1.07
CCC(=O)OCC(=O)C1(OC(=O)CC)C(C)CC2C3CCC4=CC(=O)C=CC4(C)C3(Cl)C(O)CC21C (stereo unspecified)	red/green cell ratio (normalised)	1.47

###

Assay: Cy5 fluorescence interference with SSB-bound oligo, artefact control for HCV NS3 helicase inhibitor project, biochemical, NIH Clinical Collection, E. coli SSB (AID 743268)
Entry flag: TRUE if fluorescence ratio reaches 1; FALSE if it does not.

compound	group-label
O=c1[nH]c(=O)n(C2CCCO2)cc1F (stereo not drawn)	TRUE
CN(C)CCc1c[nH]c2ccc(Cn3cncn3)cc12	TRUE
CC[C@@H]1C(=O)OC[C@@H]1Cc1cncn1C	FALSE
O=C1C(c2c(O)[nH]c3ccccc23)=Nc2ccccc21	TRUE
CC1c2cccc(O)c2C(O)=C2C(=O)C3(O)C(O)=C(C(N)=O)C(=O)C(N(C)C)C3C(O)C21 (stereo not drawn)	TRUE
C[C@@H](c1ncncc1F)[C@](O)(Cn1cncn1)c1ccc(F)cc1F	TRUE
CON=C(C(=O)N[C@@H]1C(=O)N2C(C(=O)O)=C(COC(N)=O)CS[C@H]12)c1ccco1	TRUE
Cc1c(O)c(=O)ccn1C	FALSE
CCN(CC)CCOc1ccc(C(=C(Cl)c2ccccc2)c2ccccc2)cc1	FALSE
CCOC(=O)CCC(=O)OC1C(OC2C(C)C(OC3CC(C)(OC)C(O)C(C)O3)C(C)C(=O)OC(CC)C(C)(O)C(O)C(C)C(=O)C(C)CC2(C)O)OC(C)CC1N(C)C (stereo not drawn)	TRUE

###

Assay: differential killing of epithelial or mesenchymal cells, primary screen, imaging, PC-3E GFP, TEM4-18 mCherry, co-culture (AID 1345086);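 note: normalised mesenchymal count divided by normalised epithelial count so high means epithelial killing; cells exposed to compound for 72 h before imaging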
Conditions: imaging cell counts, at 1 µM, actives lie on both sides, counts scaled to control wells, 1 = unselective
Entry flag: Met if red/green cell ratio (normalised) reaches 1; Not met if it does not.

molecule	group-label
CCC(=O)OCC(=O)[C@@]1(OC(=O)CC)[C@H](C)CC2C3C([C@@H](O)C[C@@]21C)[C@@]1(C)C=CC(=O)C=C1C[C@H]3Cl (stereo not given in full)	Met
CC1(C)O[C@@H]2CC3C4C[C@H](F)C5=CC(=O)C=C[C@]5(C)[C@@]4(F)[C@@H](O)C[C@]3(C)[C@]2(C(=O)CO)O1 (stereo not given in full)	Met
O=c1cc(-c2ccc(O)cc2)oc2cc(O)ccc12	Not met
CC(=O)O[C@]1(C(C)=O)CCC2C3C=C(Cl)C4=CC(=O)CC[C@]4(C)C3CC[C@@]21C (stereo not given in full)	Met
CC[C@H]1OC(=O)[C@H](C)[C@@H](O[C@H]2C[C@@](C)(OC)[C@@H](O)[C@H](C)O2)[C@H](C)[C@@H](O[C@@H]2O[C@H](C)C[C@H](N(C)C)[C@H]2O)[C@](C)(O)C[C@@H](C)CN(C)[C@H](C)[C@@H](O)[C@]1(C)O	Met
CCCC1O[C@@H]2CC3C4CCC5=CC(=O)C=CC5(C)C4[C@@H](O)CC3(C)[C@]2(C(=O)CO)O1 (stereo not given in full)	Met
C=CC(C)(C)c1ccc2[nH]c3c(c2c1)C[C@@H]1CC[C@@]2(O)C4=CC(=O)[C@@H]5O[C@@]4(CC[C@]2(C)[C@@]31C)OC5(C)C	Met
CC(C)CCCC(C)C1CCC2C3CC[C@H]4C[C@@H](O)CC[C@]4(C)C3CC[C@]12C (stereo not given in full)	Met
CO[C@@]12[C@@H]3NC3CN1C1=C(C(=O)C(N)=C(C)C1=O)[C@@H]2COC(N)=O (stereo not given in full)	Met
CC1=C(/C=C/C(C)=C/C=C/C(C)=C/C=C/C=C(C)/C=C/C=C(C)/C=C/C2=C(C)C(=O)C(O)CC2(C)C)C(C)(C)CC(O)C1=O (stereo not given)	Met
CCOC(=O)C(C)(N)Cc1ccc(O)c(O)c1 (stereo not given)	Met
CC1CC(=O)c2c(cc3c(-c4c(O)cc(O)c5c(O)c6c(cc45)OC(C)CC6=O)c(O)cc(O)c3c2O)O1 (stereo not given)	Not met
CN1CCN(C(c2ccccc2)c2ccc(Cl)cc2)CC1 (stereo not given)	Met
C=C1OC(=O)C23C1OC(CC(O)C2O)C3C (stereo not given)	Not met

###

Test: antimalarial activity against Dd2 strain (AID 2302);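 note: 0% = DMSO untreated growth and 100% = chloroquine plus artemisinin killed control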
Conditions: P. falciparum Dd2 in RBCs, LDH growth readout, 72 h; at 2 µM
The source made the active and inactive calls.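 Rule for the calls: active = growth inhibition above 50% at the single 2 µM test dose, taken to imply half-maximal potency below 2 µM; inactive = the rest.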
Possible outcomes: YES for active, NO for inactive

molecule	group-label
Cc1c(C(=O)Nc2cc(Sc3ccc(F)cc3)cc([N+](=O)[O-])c2)sc2ncn(Cc3cccc(F)c3)c(=O)c12	YES
Cc1cccc2[nH]c(-c3ccc(-c4ccc(NC(=O)NCc5ccc(F)cc5)cc4)cc3)nc12	YES
COc1ccc(Cl)cc1C(=O)Nc1ccc(-c2nc3ccccc3[nH]2)cc1	NO
COc1cc(-c2nc(-c3ccccc3)c(-c3ccccc3)[nH]2)cc(OC)c1O	YES
COc1ccc(CN2CCCN(Cc3cccc(NC(=O)c4ccc5ccccc5c4)c3)CC2)cc1	NO
O=C(Cc1cc(F)cc(F)c1)NC1CCN(c2ccnc3cc(Cl)ccc23)C1 (stereo unspecified)	YES

###

Assay: HepG2 cytotoxicity, primary screen, cytotoxicity control for P. falciparum antimalarial project, cell-based, ATP luminescence (AID 2303);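 note: 0% = DMSO wells and 100% = digitonin-killed cells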
Settings: HepG2 viability, 24-48 h, at 10 µM
Calls of active or inactive are those of the source.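 Rule for the calls: active = inhibition above 50%; inactive = the rest.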
Possible outcomes: 1 for active, 0 for inactive

structure-as-smiles	group-label
CCCCN(CCCC)CCCN(CCCN(CCCC)CCCC)c1cc(C)nc(Nc2ccc(Br)cc2)n1	1
CC(=O)Nc1ccc(COc2ccc(Nc3ccnc4cc(-c5ccccn5)ccc34)cc2)cc1	1
CC(C)C(=O)ONC1=NC(C)(C)N(OCCCOc2cc(Cl)c(Cl)cc2Cl)C(NOC(=O)C(C)C)=N1	1
CCc1cc(-c2n[nH]c(C(F)(F)F)c2-c2ccccc2)c(O)cc1OC	0
COc1ccc(NC(=O)/C=C/c2ccccc2Cl)cc1OCCN1CCC(Cc2cc3ccccc3[nH]2)CC1	1
CCS(=O)(=O)c1ccc(OC)c(Nc2nccc(-c3c(-c4cccc(NC(=O)c5c(F)cccc5F)c4)nn4ncccc34)n2)c1	0
Cn1c(-c2ccccc2)cc2c3c(N)nc(N)nc3ccc21	0
Oc1cc(Nc2ccnc3cc(I)ccc23)c(F)cc1Cl	0
CC1(C)N=C(N)N=C(N)N1c1cccc(C(F)(F)F)c1	1
O=C(Nc1cccc(Cl)c1)c1cnc(N2CCN(c3ccncc3)CC2)c(Cl)c1	1
Oc1ccc(CN2CCC(NCc3cccc(C(F)(F)F)c3)CC2)cc1	0
CN(C)CCOc1ccc(-c2cc(-c3ccnc(N)n3)c(-c3ccc(Cl)c(O)c3)o2)cc1	0
O=C(Nc1ccc(CN2CCOCC2)cc1)c1ccc(-c2cc(Cl)ccc2Cl)o1	0
COc1ccc(-c2nc(NC(=O)Cc3ccc4c(c3)OCCO4)sc2C)cc1	0
Cc1cc(N(C)C)nc(Nc2ccc(NC(=O)c3ccccc3Cl)cc2)n1	0

###

Test: sensitizers of A549 cells to miR-34 induction, primary screen, imaging, A549 dox-inducible miR-34, nuclei and caspase counts (AID 1347080)
Conditions: A549 miR-34 inducible, Hoechst nuclei count, 48 h; hits give low values; cell number ratio, induced over uninduced
Calls of active or inactive are those of the source.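 Rule for the calls: active = compounds whose cell count with miR-34 switched on is under 0.7 times the count with it off; inactive = the rest.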 Square brackets hold non-standard residues; d marks the D form. Side chains are listed from the residue outwards. Peptide text beside a SMILES is read from it. * marks the point of attachment. X2 = CCC(C)C(N)C1=NC(C(=O)*)CS1; Orn = NCCC[CH](N)C(=O)O

compound	fold change
CCC(C)C(N)C1=NC(C(=O)NC(CC(C)C)C(=O)NC(CCC(=O)O)C(=O)NC(C(=O)NCCCCC2NC(=O)C(CC(N)=O)NC(=O)C(CC(=O)O)NC(=O)C(Cc3cnc[nH]3)NC(=O)C(Cc3ccccc3)NC(=O)C(C(C)CC)NC(=O)C(CCCN)NC2=O)C(C)CC)CS1 (stereo not drawn) (cyclo(DNK([Ile-Glu-Leu-X2])[Orn]IFH); configuration not given here)	0.838 (inactive)
CCCCCCCCCCCCCCCC(=O)O[C@@H]1[C@@H](O)[C@@H](O)C([C@H](NC(=O)[C@@H]2C[C@@H](CCC)CN2C)[C@H](C)Cl)O[C@@H]1SC (some centres not stated)	0.819 (inactive)
CCOC(=O)Nc1nc2ccccc2[nH]1	0.84 (inactive)
CO[C@H]1C[C@H](O[C@H]2[C@H](C)[C@@H](OC3O[C@H](C)C[C@H](N(C)C)[C@H]3O)[C@@H](C)C[C@]3(CO3)C(=O)[C@H](C)[C@@H](O)[C@@H](C)[C@@H](C)OC(=O)[C@@H]2C)O[C@@H](C)[C@@H]1O (some centres not stated)	0.824 (inactive)
Cc1ccc(S(=O)(=O)NCl)cc1	0.925 (inactive)
OC[C@@H](O)C(O[C@@H]1O[C@H](CO)[C@H](O)[C@H](O)[C@H]1O)[C@H](O)[C@@H](O)CO (some centres not stated)	0.87 (inactive)
CC(=O)NS(=O)(=O)c1ccc(NC(=O)c2ccccc2C(=O)O)cc1	0.886 (inactive)
CC1=C(C(=O)O)N2C(=O)[C@@H](NC(=O)C(N)c3ccc(O)cc3)[C@H]2SC1 (some centres not stated)	0.948 (inactive)
CCc1cc(Cl)c(OC)c(C(=O)NCC2CCCN2CC)c1O (configuration not stated)	0.847 (inactive)
COc1cc(O)cc(C(=O)c2ccccc2)c1S(=O)(=O)O	0.973 (inactive)
O=C(O)C1=C(CSc2nnnn2CS(=O)(=O)O)CS[C@@H]2C(NC(=O)[C@H](O)c3ccccc3)C(=O)N12 (some centres not stated)	0.834 (inactive)
NC(Cc1c[nH]c2ccccc12)C(=O)O (configuration not stated)	0.933 (inactive)
CCCC1O[C@@H]2CC3C4CCC5=CC(=O)C=CC5(C)C4[C@@H](O)CC3(C)[C@]2(C(=O)CO)O1 (some centres not stated)	0.872 (inactive)
CC1=C(/C=C/C(C)=C/C=C/C(C)=C/C=C/C=C(C)/C=C/C=C(C)/C=C/C2=C(C)C(=O)CCC2(C)C)C(C)(C)CCC1=O	0.905 (inactive)
CC1(C)O[C@@H]2CC3C4CCC5=CC(=O)C=C[C@]5(C)C4[C@@H](O)C[C@]3(C)[C@]2(C(=O)CO)O1 (some centres not stated)	0.861 (inactive)
C[C@@H]1CC2C3CCC4=CC(=O)C=C[C@]4(C)[C@@]3(F)[C@@H](O)C[C@]2(C)[C@@]1(O)C(=O)COP(=O)(O)O (some centres not stated)	0.847 (inactive)
CCNC1CN(CCCOC)S(=O)(=O)c2sc(S(N)(=O)=O)cc21 (configuration not stated)	0.853 (inactive)
CO/N=C(/C(=O)NC1C(=O)N2C(C(=O)OC(C)OC(C)=O)=C(COC(N)=O)CSC12)c1ccco1 (configuration not stated)	0.889 (inactive)
CC(=O)O[C@]1(C(C)=O)CCC2C3C=C(C)C4=CC(=O)CCC4(C)C3CCC21C (some centres not stated)	0.897 (inactive)
CC(C)[C@@H]1CC[C@@H](C)C[C@H]1O	0.95 (inactive)
O=C1c2c(O)cccc2[C@@H](O[C@@H]2O[C@H](CO)[C@H](O)[C@@H](O)[C@H]2O)c2cc(CO)cc(O)c21	0.925 (inactive)
CC(O)(CC(=O)O)CC(=O)O	0.913 (inactive)
